biological target: CYP2C19 (Homo sapiens, UniProt P33261); construct: expressed in transfected cells; host or cells: HepG2 cells infected with Ad-CYP2C19 (2 MOI) together with the four other P450 adenoviruses; test: CYP2C19 inhibition (omeprazole 5-hydroxylation) in Ad-P450 cells, substrate cocktail; assay type: in vitro ADME; conditions: probe omeprazole (5-hydroxylation), read-out: Residual activity CYP2C19
Sequence (P33261 whole entry): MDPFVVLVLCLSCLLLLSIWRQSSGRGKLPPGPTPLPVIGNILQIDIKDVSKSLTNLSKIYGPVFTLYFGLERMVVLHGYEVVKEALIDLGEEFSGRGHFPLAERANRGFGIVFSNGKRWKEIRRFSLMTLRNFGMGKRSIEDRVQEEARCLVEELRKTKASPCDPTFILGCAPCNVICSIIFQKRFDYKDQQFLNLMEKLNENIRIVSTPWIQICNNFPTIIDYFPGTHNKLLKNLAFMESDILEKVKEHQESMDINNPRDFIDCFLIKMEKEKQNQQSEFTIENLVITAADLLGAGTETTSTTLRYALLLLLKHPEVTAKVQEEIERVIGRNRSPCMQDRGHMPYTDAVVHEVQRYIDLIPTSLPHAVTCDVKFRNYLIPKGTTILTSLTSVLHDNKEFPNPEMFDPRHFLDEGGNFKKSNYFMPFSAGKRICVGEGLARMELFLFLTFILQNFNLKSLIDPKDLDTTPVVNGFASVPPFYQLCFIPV
QUANTITY: activity at 5 h, 50 μM (%)
Give a bare numeral; the unit % is implied.

Ask | Tell me measured activity at 5 h, 50 μM for `COc1cc(/C=C/C(=O)CC(=O)/C=C/c2ccc(O)c(OC)c2)ccc1O` please.
Reply | 72.7

###

target: CYP3A4 (Homo sapiens, UniProt P08684); construct: expressed in transfected cells; host or cells: HepG2 cells infected with Ad-CYP3A4 (10 MOI) together with the four other P450 adenoviruses; test: Kinetic analysis of midazolam 1′-hydroxylation in Ad-P450 cells; assay type: in vitro ADME; conditions: human
Sequence (P08684 whole entry): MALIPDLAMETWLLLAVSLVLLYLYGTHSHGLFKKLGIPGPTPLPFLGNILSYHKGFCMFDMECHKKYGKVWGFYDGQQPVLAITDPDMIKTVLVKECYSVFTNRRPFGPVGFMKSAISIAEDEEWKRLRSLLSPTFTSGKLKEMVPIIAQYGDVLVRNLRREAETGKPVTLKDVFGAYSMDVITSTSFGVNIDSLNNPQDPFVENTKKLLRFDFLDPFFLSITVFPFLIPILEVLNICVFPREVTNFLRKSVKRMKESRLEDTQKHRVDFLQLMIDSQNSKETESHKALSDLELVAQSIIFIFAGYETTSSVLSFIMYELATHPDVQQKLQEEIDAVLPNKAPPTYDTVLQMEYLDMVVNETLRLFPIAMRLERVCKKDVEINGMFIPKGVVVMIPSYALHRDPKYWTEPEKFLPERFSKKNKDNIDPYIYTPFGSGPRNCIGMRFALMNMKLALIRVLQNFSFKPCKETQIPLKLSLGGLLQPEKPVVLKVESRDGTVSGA
QUANTITY: Km at 5 h (µM)
Give a bare numeral; the unit µM is implied.

Ask | Would you please give the reported Km at 5 h of Cc1ncc2n1-c1ccc(Cl)cc1C(c1ccccc1F)=NC2 [Midazolam] with CYP3A4 (Homo sapiens, UniProt P08684)?
Reply | 1

###

biological target: CYP2C9 (Homo sapiens); construct: expressed in transfected cells; host or cells: HepG2 cells infected with Ad-CYP2C9 (1 MOI) together with the four other P450 adenoviruses; assay: Kinetic analysis of diclofenac 4′-hydroxylation in Ad-P450 cells; type: in vitro ADME; settings: human
Sequence (P11712 whole entry): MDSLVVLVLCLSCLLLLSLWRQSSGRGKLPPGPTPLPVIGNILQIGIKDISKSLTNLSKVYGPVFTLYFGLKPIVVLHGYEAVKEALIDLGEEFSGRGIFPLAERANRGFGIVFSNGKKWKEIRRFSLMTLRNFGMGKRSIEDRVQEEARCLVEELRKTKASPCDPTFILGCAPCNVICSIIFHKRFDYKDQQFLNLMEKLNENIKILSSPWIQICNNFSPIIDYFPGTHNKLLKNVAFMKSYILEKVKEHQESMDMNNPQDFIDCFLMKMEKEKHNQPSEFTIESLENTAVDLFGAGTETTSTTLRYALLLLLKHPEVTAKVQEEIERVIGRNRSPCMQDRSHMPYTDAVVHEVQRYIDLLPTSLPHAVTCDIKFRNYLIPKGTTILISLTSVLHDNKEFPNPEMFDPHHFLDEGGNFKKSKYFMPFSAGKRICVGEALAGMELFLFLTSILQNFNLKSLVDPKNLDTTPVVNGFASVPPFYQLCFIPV
QUANTITY: Km at 5 h
The reply should consist of the numeric value with the unit placed after it.

Ask | Tell me measured Km at 5 h for `O=C(O)Cc1ccccc1Nc1c(Cl)cccc1Cl` please.
Reply | 5.87 µM

###

biological target: CYP3A4 (Homo sapiens); construct: expressed in transfected cells; host or cells: HepG2 cells infected with Ad-CYP3A4 (10 MOI) together with the four other P450 adenoviruses; test: CYP3A4 inhibition (midazolam 1′-hydroxylation) in Ad-P450 cells, substrate cocktail; assay type: in vitro ADME; conditions: probe midazolam (1′-hydroxylation), read-out: Residual activity CYP3A4
QUANTITY: activity at 5 h, 50 μM (%)
Give a bare numeral; the unit % is implied.

Ask | Tell me measured activity at 5 h, 50 μM for COc1cc(/C=C/C(=O)CC(=O)/C=C/c2ccc(O)c(OC)c2)ccc1O [curcumin] please.
Reply | 61.9
